# System: KB-3-1
# experimental.protocol: Cytotoxic Profiling of Annotated Libraries Using Quantitative High-Throughput Screening (AID 1296008); also: % is scaled to controls: 0 for no effect and ±100 for the full control effect; nearly all actives have a fitted effect of over 60% in size
# cond: Five cell lines viability, CellTiter-Glo ATP luminescence, 48-72 h; stronger effect = lower value
# Experimental: Cell-based phenotypic screening is a commonly used approach to discover biological pathways, novel drug targets, chemical probes and high-quality hit-to-lead molecules. […] A pintool (Kalypsys) was used to transfer 23 nL of compound solution to the 1536-well assay plates. […] Plates were left at room temperature for 10 min before imaging the ATP-coupled luminescence using a ViewLux microplate imager (PerkinElmer, Waltham, MA).
Results filed as inconclusive are left out.
Measured max response of individual entries
Lab book: enter the figure in %, no units written.

Reference set (2 entries):
CN1CCN(C(=O)CN[C@@H]2C[C@H]2c2ccc(OCc3ccccc3)cc2)CC1: -22.7
CC#CCC(C)[C@H](O)/C=C/[C@@H]1[C@H]2C/C(=C/CCCC(=O)O)C[C@H]2C[C@H]1O (stereo partly drawn): -19

Please examine the following record next.
In: Write down max response measured for item O=c1[nH]c2cccc(N3CCN(Cc4ccc(-c5ccccc5)cc4)CC3)c2o1
Out: -24.1

====

# target.or.test.system: Phospholipid hydroperoxide glutathione peroxidase GPX4 (Homo sapiens)
# experimental.protocol: Primary qHTS Assay for Inhibitors of Recombinant Selenoprotein Glutathione Peroxidase 4 (GPX4) (AID 1845192); also: nearly all actives have a fitted effect of over 65% in size
# cond: recombinant GPX4, GR-coupled NADPH fluorescence, 15 min; series mostly up to 50 µM
Inconclusive results are not listed. Calls of active or inactive are those of the source. Calls follow the shape of the dose curve; as a rule, active = well fitted inhibition curve with a large enough effect; inconclusive = small, poorly fitted or top-dose-only effect; inactive = flat fitted curve, though single readings scatter.
Give your call using only these classes: 1 (active), -1 (inactive)

CC(=O)O[C@H]1CC[C@@]2(C)C(=CC[C@H]3[C@@H]4CC[C@H](C(C)=O)[C@@]4(C)CC[C@@H]32)C1: -1

In: Which result was noted for this compound in the test: CCCCCCCCC(=O)N[C@H](CN1CCCC1)[C@H](O)c1ccc2c(c1)OCCO2
Out: -1

In: Field: outcome | Entry: C=C1C(=O)OC2CC(C)C(CCC(C)O)=CCC12 (configuration not stated)
Out: -1

In: What did this assay record as the result for CC(C)S(=O)(=O)NC[C@@H]1CC(c2ccc(N3CCCC3)c(F)c2)=NO1 ?
Out: -1

====

# experimental.protocol: qHTS drug screen for cell cycle checkpoint inhibitors in PARPi-resistant BRCA-mutant ovarian cancer cell lines. (AID 1963452)
# cond: PEO1/OlaR viability, CellTiter-Glo luminescence, 96 h; measured here: PEO1 parental Z-AUC; stronger effect = lower value
Threshold 0.1. Z-AUC below it: label 1. Z-AUC at it or above: label 0.

Worked examples follow.
Cn1ncc2cc(-c3cnc(N)c(Cl)c3N3CCC4(CCNC4=O)CC3)ccc21: label 1
CCCc1cc(C)[nH]c(=O)c1CNC(=O)c1cc(-c2ccc(N3CCN(C(C)C)CC3)nc2)cc2c1cnn2C(C)C: label 0
CN1CCN(c2ccc(OC(F)(F)F)c(Nc3ncc4c(n3)-c3c(c(C(N)=O)nn3CCO)CC4)c2)CC1: label 1
COc1ccc(-c2cnc3c(-c4cccc5ncccc45)cnn3c2)cc1: label 1
COc1ccc(-n2c(SCCCN3C(=O)c4cccc5cccc(c45)C3=O)nnc2-c2ccncc2)cc1: label 0

In: Find out if reported Z-AUC for CC[C@@H](C)Nc1cc(C(=O)NC2CC3CCC(C2)N3c2ccc(C(=O)C3CC3)cn2)c(C)cc1C(N)=O (some centres not stated) is less than 0.1
Out: label 1

In: Would you kindly verify if Z-AUC of Cc1ccc(C(=O)Nc2ccc(CN3CCN(C)CC3)c(C(F)(F)F)c2)cc1C#Cc1cnc2[nH]ncc2c1 is strictly less than 0.1?
Out: label 1

In: Criterion: Z-AUC strictly below 0.1. Is it met by COCC(=O)NC/C=C/c1ccc2ncnc(Nc3ccc(Oc4ccc(C)nc4)c(C)c3)c2c1 ?
Out: label 1

In: Strictly below 0.1: is that where Z-AUC of Cc1cc(F)c(C(=O)Nc2cccc(-c3nncn3C(C)C)n2)cc1-n1cnc(C2CC2)c1 sits?
Out: label 1

In: Confirm or reject: Z-AUC of CC(=O)N1CCN(CCOc2ccc(C3CCN(C4=Nn5c(nnc5C(F)(F)F)CC4)CC3)cc2)CC1 lies strictly below 0.1
Out: label 1

In: Z-AUC under 0.1? Item: CN1CCN(C2CCN(C(=O)Nc3cc(Oc4ccc(NC(=O)C5(C(=O)Nc6ccc(F)cc6)CC5)c(F)c4)ccn3)CC2)CC1
Out: label 0

In: Dear colleague, could you confirm whether Z-AUC of Cc1cn(CCN2CCN(c3ccccc3-c3cc(C#N)cc(C(=O)NCCCN4CCCC4)c3)CC2)c2ccccc12 falls below 0.1? Thanks.
Out: label 1

In: Determine whether this compound shows Z-AUC lower than 0.1 (ties excluded): CCC(CC)C(c1ccc(Nc2nc3ccccc3s2)cc1)n1cncn1 (configuration not stated)
Out: label 0

In: Take the compound C[C@H](CN(C)C)Oc1nc(Nc2cc3cccc(Cl)c3cn2)cnc1C#N and say whether its Z-AUC is less than 0.1.
Out: label 0

In: Report whether reported Z-AUC is lower than 0.1 (strictly) for Cc1cccc(-c2[nH]ncc2-c2ccc(F)c(-c3cnn(CCO)c3)c2)n1
Out: label 0

In: Field: below-cutoff. Rule: recorded Z-AUC strictly less than 0.1. Subject: COc1cc2ncnc(Nc3ccc(O)c(Br)c3)c2cc1OC
Out: label 1

In: Regarding COc1ccc(-c2c(C)nn3c(NCCN4CCOCC4)cc(C)nc23)cc1OC , kindly confirm whether its Z-AUC is beneath 0.1.
Out: label 0

In: Quick check: Z-AUC of O=C(NC[C@H](O)CN1CCc2ccccc2C1)c1ccnc(NC2CCC2)c1 under 0.1?
Out: label 1

In: Hello, I'm reviewing records and need to know if Z-AUC of CCCC1(CCC)CCC2(CCN(CCCN(CC)CC)C2)CC1 is below 0.1. Could you check?
Out: label 1
